Sourced from PubChem BioAssay (NCI)

- Tested on: DU-145 prostate
- ASSAY_METHOD_TEXT: NCI tumour cell line growth inhibition, 48 h
VALUE_TYPE: TGI

Send back DU-145 prostate TGI of CCC1CCN=C(NS(=O)(=O)c2cc(C)c(Cl)cc2S)N1 (stereo not given) only.
> 100 µM

Send back DU-145 prostate TGI of COC(=O)c1ccccc1CC(Cc1ccc2c(c1)CCC2)C(=O)OC (stereo not given) only.
> 100 µM

Send back DU-145 prostate TGI of C[Si](C)(N[Si](C)(C)OCCc1ccccc1)OCCc1ccccc1 only.
> 100 µM

Send back DU-145 prostate TGI of O=C(SC1=NCCN1)c1cccc2ccccc12 only.
> 100 µM

Send back DU-145 prostate TGI of COc1cc2c(c(OC)c1OC)-c1ccc(OC)c(=O)cc1[C@@H](NC(C)=O)CC2 only.
0.0538 µM

Send back DU-145 prostate TGI of CC(=NNC(=S)Nc1cccc(C)c1)c1cccc(C(C)=NNC(=S)Nc2cccc(C)c2)n1 only.
> 100 µM

Send back DU-145 prostate TGI of COc1ccc(C(O)(c2ccccc2)c2nccc3ccccc23)cc1 (stereo not given) only.
> 100 µM

Send back DU-145 prostate TGI of CC1(C)C2CC(O)C1CCC2=O (stereo not given) only.
> 100 µM

Send back DU-145 prostate TGI of COc1cc(C(=O)N2CCN(c3ccccc3)CC2)c2ccccc2n1 only.
0.468 µM

Send back DU-145 prostate TGI of CN(C)CCNC(=O)c1cccc2c(NC(CS)C(=O)O)c3ccccc3[n+](C)c12 (stereo not given) only.
> 100 µM

Send back DU-145 prostate TGI of COc1cc2c(cc1Cc1cccc(Cl)c1F)c(=O)c(C(=O)O)cn2[C@@H](CO)C(C)C only.
18.8 µM

Send back DU-145 prostate TGI of C/C(=N\NC(=S)N(C)C)c1nc2ncccc2[nH]1 only.
> 100 µM

Send back DU-145 prostate TGI of O[C@H]1[C@H](O)[C@@H](O)[C@@]2(O)CC[C@@H]1N2 only.
> 100 µM

Send back DU-145 prostate TGI of COC(=O)C1=COC(OC2OC(CO)C(O)C(O)C2O)C2C3CN4CCc5c([nH]c6ccccc56)C4(CC12)O3 (stereo not given) only.
> 100 µM

Send back DU-145 prostate TGI of COC(=O)C1=C(OC(=O)/C(=C/c2ccccc2)c2ccc(Cl)cc2)C(C(=O)OC)[C@@]2(O)[C@@H](C(=O)OC)[C@H](C)C[C@@H]1[C@@H]2C(=O)OC (stereo not given in full) only.
> 100 µM

Send back DU-145 prostate TGI of COc1cc(/C=N\c2nc(-c3ccc(NS(=O)(=O)c4ccc(Cl)c(OC)c4)cc3)cs2)ccc1O only.
> 100 µM

Send back DU-145 prostate TGI of CC(=O)OCC1OC(n2c3c(cc(C#N)c2=S)CCC3)C(OC(C)=O)C(OC(C)=O)C1OC(C)=O (stereo not given) only.
> 100 µM

Send back DU-145 prostate TGI of COc1ccc(Nc2cc(C)nc(NCc3ccccc3)n2)cc1 only.
23 µM

Send back DU-145 prostate TGI of N#Cc1c(N)n2c(nc1=Nc1ccc(Cl)cc1)sc1cc(Cl)ccc12 only.
> 100 µM

Send back DU-145 prostate TGI of O=C(Nc1ccc(-n2cc(-c3ccncc3)c(-c3ccc(O)c(Cl)c3)n2)cc1)Nc1ccc(Cl)c(C(F)(F)F)c1 only.
18 µM
